tested on: S. aureus RN4220; assay: growth inhibition call (relative growth <= 0.2); conditions: 50 µM
The whole screen tested about 39,000 compounds, of which about 500 (1.3%) were called active. Shown is part of a subset that was picked to be rich in actives.
parameter: growth inhibition call

Enquiry: So what does the record say about growth inhibition call for CC(C)NC(=O)Nc1ccc2c(c1)C(=O)N([C@H](C)CO)C[C@H](C)[C@@H](CN(C)C(=O)Nc1ccc(F)cc1)OCCCC[C@@H](C)O2 ?
Return: inactive

Enquiry: Quick one: growth inhibition call of COc1ccc(CN(C)C[C@@H]2Oc3c(NC(=O)c4ccc(-c5nccs5)cc4)cccc3C(=O)N([C@@H](C)CO)C[C@H]2C)cc1 ?
Return: inactive

Enquiry: Item C[C@H](CO)N1C[C@H](C)[C@@H](CN(C)S(=O)(=O)c2cn(C)cn2)Oc2ccc(NC(=O)Nc3ccc4c(c3)OCO4)cc2CC1=O has what recorded growth inhibition call?
Return: inactive

Enquiry: # growth inhibition call lookup, item O=C(C[C@H]1CC[C@H]2[C@@H](COC[C@H](O)CN2C(=O)Nc2ccc(Cl)cc2)O1)NC1Cc2ccccc2C1
Return: active

Enquiry: Could you tell me which growth inhibition call is on file for COc1ccc2[nH]c(=O)[nH]c(=O)c2c1 ?
Return: active

---
Enquiry: Entry C[C@@H]1CCCCO[C@@H](CN(C)Cc2ccc(C(=O)Nc3ccccc3N)cc2)[C@@H](C)CN([C@H](C)CO)C(=O)c2cc(NC(=O)c3ccccc3)ccc2O1 has what growth inhibition call?
Return: inactive

Enquiry: Record request: growth inhibition call value, item COc1ccccc1CNC(=O)C[C@H]1CC[C@H]2[C@@H](COC[C@@H](O)CN2C(=O)Nc2ccc(Cl)cc2)O1
Return: inactive
